Where do the numbers come from? From the supplement of paper PMC7724964.

- target_entity: DEPDC6 20-129 DEP (domain begin residue: 20, domain end residue: 129)
- assay_method_text: phage ELISA signal ratio (GST-PRM binding over GST background); higher = stronger binding of peptide-phage to the PRM
experimental_readout: phage ELISA signal ratio
API doc: respond with a numeric literal and nothing else, no unit.

Solved cases below.
> print(dat)
             binder      experimental.readout  assay.value
1  MPVWWEDWYWDWKSMH  phage ELISA signal ratio         6.24
2  THSEQWFETLMWNFHN  phage ELISA signal ratio         3.26

Request: Param item = QFDLWMRNVMLDFWAD ; retrieve measured phage ELISA signal ratio.
Response: 11.2

Request: // query: DFQGIMDSYRAMEINT
Response: 20.1
